targetEntity: T1, human Protein S (UniProt P07225 42-676)
T1 chain: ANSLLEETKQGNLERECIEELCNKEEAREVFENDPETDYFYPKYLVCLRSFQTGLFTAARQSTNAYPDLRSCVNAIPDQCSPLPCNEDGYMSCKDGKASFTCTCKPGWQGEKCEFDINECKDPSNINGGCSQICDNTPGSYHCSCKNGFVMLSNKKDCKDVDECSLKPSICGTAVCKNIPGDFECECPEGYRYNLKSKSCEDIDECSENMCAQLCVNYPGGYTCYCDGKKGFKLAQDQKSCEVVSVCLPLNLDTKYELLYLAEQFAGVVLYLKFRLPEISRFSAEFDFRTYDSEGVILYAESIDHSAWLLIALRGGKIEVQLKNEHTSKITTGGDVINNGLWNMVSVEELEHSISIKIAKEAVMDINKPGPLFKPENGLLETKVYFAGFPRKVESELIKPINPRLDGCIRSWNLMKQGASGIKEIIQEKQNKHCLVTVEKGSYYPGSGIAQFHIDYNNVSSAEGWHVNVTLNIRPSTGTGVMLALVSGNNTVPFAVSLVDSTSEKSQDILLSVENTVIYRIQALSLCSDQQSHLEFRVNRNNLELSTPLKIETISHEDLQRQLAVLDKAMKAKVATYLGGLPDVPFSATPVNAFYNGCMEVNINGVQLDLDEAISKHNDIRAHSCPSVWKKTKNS
testProtocol: LANCE competition
pIC50: −log10 of the molar value.

binder: Ac-LGHVSAGWYDYNFDHYREFT-NH2 [JBS2570]
pIC50: 7.73
--
binder: Ac-GAHVSAGWYDYNFDHYREFT-NH2 [JBS2681]
pIC50: 7.73
--
binder: Ac-TGHVSAGWYDYNFDAYREFT-NH2 [JBS2528]
pIC50: 7.73
--
binder: Ac-PGHVSAGWYDYNFDHYREFT-NH2 [JBS2628]
pIC50: 7.57
--
binder: Ac-TGHVSAGWYDYNFDDYREFT-NH2 [JBS2546]
pIC50: 7.51
--
binder: Ac-FGHVSAGWYDYNFDHYREFT-NH2 [JBS2610]
pIC50: 7.81
--
binder: Ac-TGLVSAGWYDYNFDHYTEFT-NH2 [JBS2887]
pIC50: 8.40

Data provenance: patent US20150246947A1
